- Tested on: A549
- MEASUREMENT NOTES: Cytotoxicity assay (cell titer-glo and calcein AM), A549
- EXPERIMENTAL CONTEXT: read-out: Cytotoxicity IC50, A549, CTG; A549; CTG (cell titer-glo) readout; % error in parentheses
pIC50: −log10 of the molar value.
PARAMETER MEASURED: pIC50

>>> value_observed("COc1cc2c(c(OC)c1OC)-c1ccc(OC)c(=O)cc1C(NC(=O)CN(OC)C1OCC(O)C(O)C1O)CC2 [Col17, L-xyloside]")
5.03
>>> value_observed("COc1cc2c(c(OC)c1OC)-c1ccc(OC)c(=O)cc1[C@@H](NC(=O)CN(OC)[C@H]1C[C@@H](O)[C@H](O)[C@@H](CO)O1)CC2 [Col16, 2-deoxy-D-glucoside]")
5.41
>>> value_observed("COc1cc2c(c(OC)c1OC)-c1ccc(OC)c(=O)cc1[C@@H](NC(=O)CN(OC)[C@@H]1O[C@H](C(=O)O)[C@@H](O)[C@H](O)[C@H]1O)CC2 [Col15, D-glucuronoside]")
5.66
>>> value_observed("COc1cc2c(c(OC)c1OC)-c1ccc(OC)c(=O)cc1C(NC(=O)CN(OC)C1CC(O)C(O)C(C)O1)CC2 [Col65, D-Digitoxoside]")
5.83
>>> value_observed("COc1cc2c(c(OC)c1OC)-c1ccc(OC)c(=O)cc1C(NC(=O)CN(OC)C1OCC(O)C(O)C1O)CC2 [Col22, L-riboside]")
5.37
